Tested on: DMS 114 small cell lung
Test: NCI tumour cell line growth inhibition, 48 h
RECORDED_METRIC: TGI

1. O=C1/C(=C/c2ccccc2)CN(C(=O)CCN2CCOCC2)C/C1=C\c1ccccc1; 7.59 µM
2. COc1cc2ccc(=O)oc2cc1O; 335 µM
3. CSc1nnc(CCC(=O)Nc2c(C)cccc2C)o1; > 100 µM
4. C=Cc1cncc(C#N)c1CCc1c(C#N)cncc1C=C; > 10 µM
5. O=[N+]([O-])c1ccc(-n2nnc(C3=NCCN3)c2-c2ccccc2)cc1; > 100 µM
6. NC(=O)CN(CC(N)=O)C(N)=O; > 100 µM
